# testSystem: T1, corticotropin-releasing hormone (CRH) peptide (human and mouse, UniProt P01143 145-185 (rat entry), not fully specified)
# T1 peptide: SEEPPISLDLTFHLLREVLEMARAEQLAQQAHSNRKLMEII
# testName: cell-based or functional assay
Reported hCRHR1-Luc 0.5 nM CRH IC50 is given for each of the following binders.
Give a bare numeral; the unit nM is implied.

Worked examples, 2 binders total:
{"binder": "PR302341-15 (antibody, human IgG1, kappa, V domains shown) VH: QVQLVQSGAEVKKPGASVKVSCKASGYTFTDYFMKWVRQAPGQRLEWMGVINPNNGDIFYNQKFKGRVTITRDTSASTAYMELSSLRSEDTAVYYCARGTDRALFAYWGQGTLVTVSS VL: DVLMTQTPLSLPVSLGDQASISCRSGQSIVHSDGNTYLEWYLQRPGQSPRLLIYKVSNRFSGVPDRFSGSGSGTDFTLKISRVGAEDLGIYYCFQGSHIPWTFGGGTKLEVKR", "hCRHR1-Luc 0.5 nM CRH IC50, nM": 0.124}
{"binder": "PR302341-19 (antibody, human IgG1, kappa, V domains shown) VH: QVQLVQSGAEVKKPGASVKVSCKASGYTFTDYFMKWVRQAPGQGLEWMGVINPNNGDIFYNQKFKGRVTMTRDTSTSTVYMELSSLRSEDTAVYYCARGTDRALFAYWGQGTLVTVSS VL: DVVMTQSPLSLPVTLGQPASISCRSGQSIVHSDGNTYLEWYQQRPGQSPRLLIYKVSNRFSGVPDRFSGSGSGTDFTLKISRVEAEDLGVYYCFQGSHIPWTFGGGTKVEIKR", "hCRHR1-Luc 0.5 nM CRH IC50, nM": 0.121}

Next binder, please.
Query: hCRHR1-Luc 0.5 nM CRH IC50; subject: PR302341-24 (antibody, human IgG1, kappa, V domains shown) VH: QVQLVQSGAEVKKPGASVKVSCKASGYTFTDYFMKWVRQAPGQRLEWMGVINPNNGDIFYNQKFKGRVTITVDKSASTAYMELSSLRSEDTAVYYCARGTDRALFAYWGQGTLVTVSS VL: DVVMTQTPLSSPVTLGQPASISCRSGQSIVHSDGNTYLEWYQQRPGQPPRLLIYKVSNRFSGVPDRFSGSGAGTDFTLKISRVEAEDLGVYYCFQGSHIPWTFGGGTKVEIKR 0.192
